Molecular target: T1, Cyno CD98hc ECD Avi-His (cynomolgus macaque, UniProt P08195 105-529 (human entry))
T1 construct: biotinylated on the Avi tag where captured on streptavidin; also called Cyno CD98-AVI-His; Cyno CD98hc-AVI-His
T1 chain: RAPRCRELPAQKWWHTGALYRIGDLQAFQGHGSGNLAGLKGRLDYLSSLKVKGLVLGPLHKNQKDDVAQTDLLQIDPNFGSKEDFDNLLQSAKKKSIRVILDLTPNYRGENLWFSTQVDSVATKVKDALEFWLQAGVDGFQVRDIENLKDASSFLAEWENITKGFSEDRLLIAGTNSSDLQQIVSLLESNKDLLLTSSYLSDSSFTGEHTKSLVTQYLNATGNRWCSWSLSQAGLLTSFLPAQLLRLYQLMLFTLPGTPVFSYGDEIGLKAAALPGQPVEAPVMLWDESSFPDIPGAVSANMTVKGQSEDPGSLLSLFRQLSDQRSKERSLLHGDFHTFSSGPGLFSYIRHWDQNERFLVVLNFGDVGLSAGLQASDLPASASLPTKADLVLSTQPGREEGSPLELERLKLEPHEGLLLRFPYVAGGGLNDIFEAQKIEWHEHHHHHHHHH
Experiment: ELISA, hybridoma supernatant
Entries and their measured OD450 follow.
// keep it numeric: no unit symbol after the value

In the examples that follow, each entry is paired with its recorded OD450.
CD98HC.04.013 (antibody, V domains shown, hybridoma IgG) VH: EVQLVESGGDLGMPGGSLKLSCAASGFALSGYDMSWVRQTPDKRLEWVAYLSSGGGSTYYPYTVKGRFTISRDNAQNTLYLQMSSLKSEDTAIYYCARHSEVRPWFGYWGQGTLVTVSA VL: DIVMSQSPSSLAVSVGEKVTLTCKSSQSLLYSGNQKNYLAWYQQNPGQSPKLLIYWASTRESGVPDRFTGSGSGTDFTLTISSVKAEDLAVYYCQQYYTYPPTFGAGTKLGLK :: 2.04
CD98HC.03.002 (antibody, V domains shown, hybridoma IgG) VH: DVQLVESGGGLVQPGGSRKLSCAASGFTFSTFGMHWVRQAPEKGLEWVAYISGGSTNIYYADTVKGRFTISRDNPKNTLFLQMTSLRSEDTAMYYCARETTLLATNFDYWGQGTTLTVSS VL: DIQMTQTTSSLSASLGDRVTISCRASQDISNYLNWYQQKPDGTVKLLIYYTSRLHSGVPSRFSGSGSGTDYSLTISNLEQEDIATYFCQQGSTLPRTFGGGTKLEIK :: 1.69
CD98HC.04.046 (antibody, V domains shown, hybridoma IgG) VH: QIQLVQSGPVLKKPGETVKISCKASGYTFTNFGMNWVKQAPGKGLKWMGWIDTYTREPTYVDDFKGRFAFSLETSVTTAYLQINDLKNEDSATYFCARGESHWYFDVWGAGTTVTVSS VL: QIVLTQSPAIMSASLGERVTMTCIVSSSVSSSYLYWYQQKPGSSPKLWIYSTSILASGVPGRFSGSGSGTSYSLTISSMEAEDAATYYCHQYHRSPPTFGGGTKLEIK :: 1.88
CD98HC.04.018 (antibody, V domains shown, hybridoma IgG) VH: QIQLVQSGPELKKPGETVKISCKASGYTFRNYGMNWVKQAPGKGLKWMGWINTYTGEPTYAEDFKGRFAFSLETSASTAYLQINKLKNEDEATYFCARGEAHWYFDVWGAGTTVTVSS VL: QIVLTQSPAIMSASLGERVTMTCTASSSVSSSYLYWYQQKPGSSPKLWIYSIFNLASGVPARFSGSGSGTSYSLTISSMEAEDAATYYCHQYHRSPPTFGGGTKLEIK :: 1.97
CD98HC.04.012 (antibody, V domains shown, hybridoma IgG) VH: QVQLQQSGADLVRPGDSVKISCKGSGYTFTDNTLHWVKQSHAKSLEWIGVISPYYGDASYNQKFKGKATMTVDKSSSTAYMELARLTSEDSAIYYCARVGGRLRLGYYFDHWGQGTTLTVSS VL: NIMMTQSPSSLAVSAGEKVTMNCKSSQSVLSSSNQKNYLAWYQQKPGQSPKLLIYWASTRESGVPARFTGSGSGTDFSLTITSVQAEDLAVYYCLQYLSSYTFGGGTKLEIK :: 1.73
CD98HC.04.022 (antibody, V domains shown, hybridoma IgG) VH: EVQLQQSGAELVKPGASVKLSCTASGFNIKDTFMHWMKQRPEQGLEWIGRIDPANANTRYDPKFQGKATITTDTSSNTAYLQLSSLTSEDTAVYYCARDVYYDVWGAGTTVTVSS VL: DILMTQSPSSMSVSLGDTVTITCHASQGISSNIGWLQQKPGRSFKGLIYHGSNLEDGVPSRFTGSGSGTDYSLTISGLESEDFADYYCVQYAQFPRTFGGGTKLEIQ :: 1.89

Fill in OD450 for record CD98HC.03.031 (antibody, V domains shown, hybridoma IgG) VH: QVQLQQSGAELVRPGVSVKISCKASGYTFTDYAMHWVKQSHAKSLEWIGVISTYYGDTTYNQKFKDKATMTVDKSSSTAYLELARLTSEDSAIYYCARVWLLSYAMDNWGQGTSVTVSS VL: DIVMTQSQRFMSTSVGDGVRITCKASQNVRTAVAWYQQKPGQSPKALINLAPNRHTGVPDRFTARGSGTDFTLTISNVQSEDLADYFCLQHWNYPLTFGAGTKLELK 1.48

Fill in OD450 for record CD98HC.04.010 (antibody, V domains shown, hybridoma IgG) VH: QVQLQQSGAELMKPGASVKISCKATGYTFSTYWIEWVKQRPGHGLEWIGEILPGSGTTTYNEKFKGKATFTADTSSNTAYMQLSSLTSEDSAVYYCARRTVYYRYEGIDYWGQGTTLTVSS VL: QIVLTQSPAIMSASPGEKVTITCSASSSVSYMFWFQQRPGTSPKLWIYTTSNLASGVPARFSGSGSGTSYSLTISRMEAEDAATYYCQQKNNYPFTFGSGTKLEIK 1.97

Fill in OD450 for record CD98HC.04.063 (antibody, V domains shown, hybridoma IgG) VH: EVKLEESGGGLVQPGGSMILSCVASGFTFSNSWMNWVRQSPEKGLEWVAEIRLRSNNYATHYAESVKGRFTISRDDSKSTVYLQMNNLRAEDTGIYYCSRGDPGAYWGQGTLVTVSA VL: DIQMTQSSSYLSVSLGNRVTITCKASDHIKNWLAWFQQKPGNAPRLLISGATILETGVPSRFSGSGSGKDYTLSITSLQTEDVATYYCQQYWSTPYTFGGGTKLEIK 1.91

Fill in OD450 for record CD98HC.03.010 (antibody, V domains shown, hybridoma IgG) VH: EVQLQQSGTELVKPGASVKLSCTASGLDIKDTYLHWVKQRPEQGLEWIGKIDPANGNTKYNPKFQGKATITADTSSNTAYLQLSSLTSEDTAVHYCTTPYYSGSSYGDYWGQGTTLTVSS VL: QIVLTQSPAIMSASPGEKVTLTCSASSSVSSSYLYWYQQKPGSSPKLWIYSTSNLASGVPARFSGSGSGTSYSLTISSMEAEDAASYFCHQWSRYPLTFGAGTKLELK 1.77

Recorded values, source patent US20250270341A1.
